- Tested on: Streptococcus pyogenes
- method_description: Antibacterial activity against Streptococcus pyogenes after 18 hrs by […]
- Type: functional
quantity_measured: MIC (µg/mL)

Examples with their reported MIC follow.
CC1(C)S[C@@H]2[C@H](NC(=O)[C@H](N)c3ccc(O)cc3)C(=O)N2[C@H]1C(=O)O [AMOXICILLIN]; 32
Cc1ccc(NC(=S)N/N=C2\CC[C@@]3(C)C(=CC[C@H]4[C@@H]5CC[C@H]([C@H](C)CCCC(C)C)[C@@]5(C)CC[C@@H]43)C2)cc1; 256

A. Cc1ccccc1NC(=S)N/N=C1\CC[C@@]2(C)C(=CC[C@H]3[C@@H]4CC[C@H]([C@H](C)CCCC(C)C)[C@@]4(C)CC[C@@H]32)C1
B. Cc1cccc(NC(=S)N/N=C2\CC[C@@]3(C)C(=CC[C@H]4[C@@H]5CC[C@H]([C@H](C)CCCC(C)C)[C@@]5(C)CC[C@@H]43)C2)c1
Given the two records A and B , choose the one whose MIC value is lower. Lab log: write the label of the selected item as the result.
A
